# key: entry, value: growth inhibition
# assay.text: NCI Yeast Anticancer Drug Screen. Data for the rad18 strain (AID 177)
# condition.set: S. cerevisiae rad18 mutant growth inhibition; at 1.2 µM; stronger effect = higher value
Compounds without any hit were thinned out: in the full panel of roughly 79,000, 15% have a hit.
measurement.name: growth inhibition (%)

[[record]]
compound = "COc1nc2c(c(=O)n1C)N=C(c1ccccc1)[C@H](C(CC(=O)c1ccccc1)c1ccccc1)C(c1ccccc1)N2 (stereo partly specified)"
reported_value = 37

[[record]]
compound = "C=C1CCC(O)C/C1=C/C=C1\\CCCC2(C)C1CCC2C(C)CCCC(C)C (stereo unspecified)"
reported_value = -10

[[record]]
compound = "CC(C)CN(CC(C)C)C(=O)c1ccc(Cl)c(Cl)c1"
reported_value = 0

[[record]]
compound = "CC1=C(C(=O)NCc2ccccc2)C(c2ccccc2)C(C(=O)NCc2ccccc2)=C(C)N1"
reported_value = 2

[[record]]
compound = "COC(=O)/C=C(/C(=O)OC)C(Cl)(Cl)Cl"
reported_value = 38

[[record]]
compound = "Cc1nc2ccccc2nc1NNc1ccccc1"
reported_value = -3

[[record]]
compound = "CN(C)c1ccc(N=Nc2ccncc2)cc1"
reported_value = 6

[[record]]
compound = "CCCCCOC(=S)SC(=O)OCC"
reported_value = -5

[[record]]
compound = "COc1ccc([N+](=O)[O-])c2c(NCCCN(C)C)c3ccccc3nc12"
reported_value = 62

[[record]]
compound = "COc1ccc(C(=O)c2ccccc2C(=O)c2ccccc2OC)cc1"
reported_value = -1

[[record]]
compound = "C[C@]12CC[C@H](O)CC1=CC[C@@H]1C2CC[C@]2(C)C(=O)NC(=O)CC12 (stereo partly specified)"
reported_value = -27

[[record]]
compound = "O=C(O)c1cc2ccc(Cl)cc2c(O)c1C1=CCCCC1"
reported_value = 22

[[record]]
compound = "O=[N+]([O-])c1ccc2c(c1)/C(=N/N=C1c3ccccc3Cc3ccccc31)c1cc([N+](=O)[O-])cc([N+](=O)[O-])c1-2"
reported_value = 50

[[record]]
compound = "Cc1cccc(C(C)(C)C)c1NC(=O)C(C#N)C1=C(Cl)C(=O)c2ccccc2C1=O (stereo unspecified)"
reported_value = -6

[[record]]
compound = "CN(C)/C=C/c1nnc([N+](=O)[O-])s1"
reported_value = 0

[[record]]
compound = "O=C(O)CNC(=S)Nc1ccccc1"
reported_value = -56

[[record]]
compound = "NC1CCCCC1N.Nc1c(N=Nc2ccc(-c3ccc(N=Nc4cc(S(=O)(=O)[O-])c5ccccc5c4N)cc3)cc2)cc(S(=O)(=O)[O-])c2ccccc12.[OH3+].[OH3+].[Pt+4]"
reported_value = 1

[[record]]
compound = "CCCCCCC(O)CNCc1ccnc2ccc(OC)cc12 (stereo unspecified)"
reported_value = 7

[[record]]
compound = "c1ccc(Cc2cc(-c3ccccc3)n[nH]2)cc1"
reported_value = -5

[[record]]
compound = "Cc1ccc2c(c1)C1(SC(C)C(=O)N1c1ccc(Cl)cc1)C(=O)N2 (stereo unspecified)"
reported_value = 4

[[record]]
compound = "CCOC1(c2cccc([N+](=O)[O-])c2)c2ccccc2Oc2ccccc21"
reported_value = -1


* * *

# assay.text: NCI Yeast Anticancer Drug Screen. Data for the wt1 strain (AID 149);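 further: 0% = growth of vehicle-treated wt1 cultures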
# condition.set: S. cerevisiae wt1 strain (SPY 50644) growth inhibition; at 100.0 µM; stronger effect = higher value
Compounds without any hit were thinned out: in the full panel of roughly 79,000, 15% have a hit.
measurement.name: growth inhibition (%)

[[record]]
compound = "O=[n+]1c2ccccc2n([O-])c2cc(Br)ccc21"
result_unit = "%"
reported_value = 98

[[record]]
compound = "CCCCc1nnc(NS(=O)(=O)c2ccc(C)cc2)s1"
result_unit = "%"
reported_value = 84

[[record]]
compound = "CC1=NOC(=O)/C1=C/c1ccc2c(c1)OCO2"
result_unit = "%"
reported_value = 13

[[record]]
compound = "CCCCCCCCCCCCNC(C)=O"
result_unit = "%"
reported_value = 9

[[record]]
compound = "Oc1ccc(-c2nc(-c3ccc(F)cc3)c(-c3ccc4ccccc4n3)[nH]2)cc1"
result_unit = "%"
reported_value = 94

[[record]]
compound = "Nc1ccc2c(c1)C(=O)c1ccc(F)cc1-2"
result_unit = "%"
reported_value = 16

[[record]]
compound = "COc1ccc(C2C3=C(COC3=O)OC(C)(C)Oc3cc4c(cc32)OCO4)cc1OC (configuration not stated)"
result_unit = "%"
reported_value = 94

[[record]]
compound = "CC1CC(C)(C)CC(OCCN2CCCCC2)(c2ccccc2)C1 (configuration not stated)"
result_unit = "%"
reported_value = 32

[[record]]
compound = "CCCCCCC(O)CNCc1ccnc2ccc(OC)cc12 (configuration not stated)"
result_unit = "%"
reported_value = 18

[[record]]
compound = "CC(C)C(C)/C=C\\C(C)C1CCC2C3=CC=C4CC(O)CCC4(C)C3CCC21C (configuration not stated)"
result_unit = "%"
reported_value = -3

[[record]]
compound = "O=C(NO)Nc1cc(Cl)cc(Cl)c1"
result_unit = "%"
reported_value = 98

[[record]]
compound = "O=[N+]([O-])c1cccc2nc3ccccc3c(NCCC[N+]3([O-])CCCCC3)c12"
result_unit = "%"
reported_value = 46

